Tgt: Dual specificity protein phosphatase 3 (Homo sapiens)
Assay details: VHR1 phosphatase inhibitors, primary screen, biochemical, colorimetric, HTS (AID 1992)
Experimental parameters: recombinant VHR phosphatase, colorimetric substrate read-out; at 20 µM
The campaign covered roughly 50,000 compounds. About 350 (0.7%) were called active. Cut-off read from the data, not from the text of the source: active = inhibition above about 60%; inactive = the rest. The list comes from a sample in which actives are over-represented; it also holds close analogues and randomly drawn compounds.
Form entry, call: pick from active, inactive

- Molecule: "CCC(=O)N(CCC1(c2ccc(F)cc2)CCOC(C)(C)C1)Cc1ccc(OC)c(OC)c1 (stereo not drawn)"
  Tgt: "Dual specificity protein phosphatase 3 (Homo sapiens)"
  Class label: "inactive"
- Molecule: "O=C(NCc1ccccn1)Nc1ccc(Cl)cc1"
  Tgt: "Dual specificity protein phosphatase 3 (Homo sapiens)"
  Class label: "inactive"
- Molecule: "CCOC(=O)c1c(NC(=O)Cc2ccc(Cl)cc2)sc(C(=O)Nc2cccc(OC)c2)c1C"
  Tgt: "Dual specificity protein phosphatase 3 (Homo sapiens)"
  Class label: "inactive"
- Molecule: "COc1ccc(OC)c(-n2c(O)c(C=Nc3cccc(C)c3)c(=O)[nH]c2=O)c1"
  Tgt: "Dual specificity protein phosphatase 3 (Homo sapiens)"
  Class label: "inactive"
- Molecule: "Cc1nc2cc(-c3ccc(Br)cc3)[nH]n2c(=O)c1C"
  Tgt: "Dual specificity protein phosphatase 3 (Homo sapiens)"
  Class label: "inactive"
- Molecule: "COc1ccc(N/C(C)=C/C(=O)c2ccc(F)cc2)cc1"
  Tgt: "Dual specificity protein phosphatase 3 (Homo sapiens)"
  Class label: "inactive"
- Molecule: "CSc1nc(SC)c2c3c(sc2n1)COC(C)(C)C3"
  Tgt: "Dual specificity protein phosphatase 3 (Homo sapiens)"
  Class label: "inactive"
- Molecule: "O=C(c1nn2c(c1Cl)NC(c1ccc(F)cc1)CC2C(F)(F)F)N1CCN(Cc2ccccc2)CC1 (stereo not drawn)"
  Tgt: "Dual specificity protein phosphatase 3 (Homo sapiens)"
  Class label: "inactive"

Could you please tell me the result logged for `CC(C)(C)c1ccc(/C=N/NC(=O)Cc2cccc3ccccc23)cc1` in this assay? inactive

Kindly provide the recorded test outcome for the following molecule: `CCOC(=O)c1c(NC(=O)Cc2ccc(Cl)cc2)sc(C(=O)Nc2ccccc2OC)c1C` active
